The reported numbers originate from ChEMBL document CHEMBL2029344.

assay: Drug uptake in C57 mouse plasma at 3 mg/kg, po after 20 hrs by LC/MS analysis; type: ADME, organism-based; design: dose 3 mg/kg, route oral
observable: concentration at 20 h

smiles_code=C[C@@]1(N)C[C@H](C(=O)N2CCC(c3ccnn3-c3ccc(F)c(Cl)c3)CC2)[C@@H](c2ccc(F)cc2F)C1 observable="concentration at 20 h" measured_result="23 nM"

###

assay: Half life in mouse at 1 mg/kg, iv and 30 mg/kg, po; format: ADME, organism-based; conditions: in vivo
observable: half-life (h)

smiles_code=Cc1cc(C2CCN(C(=O)[C@@H]3C[C@@](C)(N)C[C@H]3c3ccc(F)cc3F)CC2)n(-c2ccc(F)c(Cl)c2)n1 measured_result=4.9

###

experiment: Stability in mouse liver microsomes after 30 mins by LC/MS analysis; format: ADME, Microsome; conditions: read-out: Stability
Output schema: class label derived from remaining at 0.5 h. Mapping: lo = under 30%, mid = from 30% up to 80%, hi = 80% and over

smiles_code=C[C@]1(N)C[C@H](C(=O)N2CCC(c3ccnn3-c3ccc(F)c(Cl)c3)CC2)[C@@H](c2ccc(F)cc2F)C1 class=hi
smiles_code=CN(C)[C@]1(C)C[C@H](C(=O)N2CCC(c3ccnn3-c3ccc(F)c(Cl)c3)CC2)[C@@H](c2ccc(F)cc2F)C1 class=lo
smiles_code=Cc1nc(C2CCN(C(=O)[C@@H]3C[C@@](C)(N(C)C)C[C@H]3c3ccc(F)cc3F)CC2)n(-c2ccc(Cl)c(C)c2)n1 class=mid
smiles_code=Cc1cc(C2CCN(C(=O)[C@@H]3C[C@@](C)(N(C)C)C[C@H]3c3ccc(F)cc3F)CC2)n(-c2cc(Cl)ccc2Cl)n1 class=mid
smiles_code=Cc1nc(C2CCN(C(=O)[C@@H]3C[C@@](C)(N(C)C)C[C@H]3c3ccc(F)cc3F)CC2)n(-c2cc(Cl)ccc2Cl)n1 class=lo
smiles_code=Cc1nc(C2CCN(C(=O)[C@@H]3C[C@@](C)(N)C[C@H]3c3ccc(F)cc3F)CC2)n(-c2ccc(Cl)c(C)c2)n1 class=mid
smiles_code=CN(C)[C@@]1(C)C[C@H](C(=O)N2CCC(c3ccnn3-c3ccc(F)c(Cl)c3)CC2)[C@@H](c2ccc(F)cc2F)C1 class=mid
smiles_code=C[C@@]1(N)C[C@H](C(=O)N2CCC(c3ccnn3-c3ccc(F)c(Cl)c3)CC2)[C@@H](c2ccc(F)cc2F)C1 class=mid
smiles_code=Cc1cc(C2CCN(C(=O)[C@@H]3C[C@@](C)(N)C[C@H]3c3ccc(F)cc3F)CC2)n(-c2ccc(F)c(Cl)c2)n1 class=hi
smiles_code=Cc1nc(C2CCN(C(=O)[C@@H]3C[C@](C)(N)C[C@H]3c3ccc(F)cc3F)CC2)n(-c2ccc(F)c(Cl)c2)n1 class=hi

###

assay: Percentage unbound in 10% mouse plasma; format: ADME, cell-free
Each item that follows carries a reported fraction unbound.
observable: fraction unbound

smiles_code=Cc1cc(C2CCN(C(=O)[C@@H]3C[C@@](C)(N(C)C)C[C@H]3c3ccc(F)cc3F)CC2)n(-c2cc(Cl)ccc2Cl)n1 observable="fraction unbound" measured_result=0.013
smiles_code=CN(C)[C@@]1(C)C[C@H](C(=O)N2CCC(c3ccnn3-c3ccc(F)c(Cl)c3)CC2)[C@@H](c2ccc(F)cc2F)C1 observable="fraction unbound" measured_result=0.132
smiles_code=C[C@@]1(N)C[C@@H](C(=O)N2CCC(c3ncnn3-c3ccc(F)c(Cl)c3)CC2)[C@H](c2ccc(F)cc2F)C1 observable="fraction unbound" measured_result=0.15
smiles_code=Cc1cc(C2CCN(C(=O)[C@@H]3C[C@@](C)(N(C)C)C[C@H]3c3ccc(F)cc3F)CC2)n(-c2ccc(F)c(Cl)c2)n1 observable="fraction unbound" measured_result=0.035
